B1: Pre-mRNA-processing factor 40 homolog B, residues 274 to 332; numbered along this chain, Q6NWY9 (parent)
chain: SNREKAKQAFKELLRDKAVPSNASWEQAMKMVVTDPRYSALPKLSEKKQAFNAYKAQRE

- Variants of: B1
- test method notes: abundance fitness (aPCA) (normalised: wild type 0, dead -1); higher = more abundant; growth selection in yeast, the domain comes from the species named
- details: Homo sapiens
Reported values of abundance fitness for individual entries
# answer = number (no unit)

// below: answered variants
# get_value(readout='abundance fitness', item= `L13C` )
-0.244

# get_value(readout='abundance fitness', item= `S21H` )
-0.037

# get_value(readout='abundance fitness', item= `A50Q` )
-0.212

More entries:
# get_value(readout='abundance fitness', item= `A50L` )
-0.084

# get_value(readout='abundance fitness', item= `A56N` )
-0.18

# get_value(readout='abundance fitness', item= `T34W` )
-0.544

# get_value(readout='abundance fitness', item= `Y38C` )
-0.368
